Test system: RPMI-8226 leukemia
Assay: NCI tumour cell line growth inhibition, 48 h
measure: TGI

{"molecule": "COc1cc(COC(=O)N2CCC2C(=O)O)c([N+](=O)[O-])cc1OC (stereo not drawn)", "measure": "TGI", "result": "> 100 µM"}
{"molecule": "Nc1nc2c(c(=O)[nH]1)CN(c1ccc(S(N)(=O)=O)cc1)CN2", "measure": "TGI", "result": "> 100 µM"}
{"molecule": "CCCCCCCCCCCCCCCCCCCCCC(=O)Nc1ccn(C2OC(CO)C(O)C2O)c(=O)n1 (stereo not drawn)", "measure": "TGI", "result": "> 100 µM"}
{"molecule": "O=C1/C(=C/c2ccc(O)cc2)COc2ccc(-c3ccccc3)cc21", "measure": "TGI", "result": "7.68 µM"}
{"molecule": "COc1cccc(C(=O)C2C(=O)N(C)CCc3ccccc32)c1OC (stereo not drawn)", "measure": "TGI", "result": "> 100 µM"}
{"molecule": "C[C@@H]1CN(CC(=O)N2CC(C)(C)c3nc(CO)c(Cc4ccc(F)cc4)cc32)[C@@H](CN2CCOC[C@H]2C)CN1", "measure": "TGI", "result": "48 µM"}
{"molecule": "COC(=O)CNC(=O)[C@@H](OC)[C@@H]1Cc2cc3cc(OC4CC(OC5CC(O)C(O)C(C)O5)C(O)C(C)O4)c(C)c(O)c3c(O)c2C(=O)[C@H]1OC1CC(OC2CC(OC3CC(C)(O)C(O)C(C)O3)C(O)C(C)O2)C(O)C(C)O1 (stereo partly drawn)", "measure": "TGI", "result": "1.38 µM"}
{"molecule": "Cc1cccc2c1NC(=S)[C@@H]1CCCN1C2=O", "measure": "TGI", "result": "> 100 µM"}

###

Test system: RXF 393 renal
Assay: NCI tumour cell line growth inhibition, 48 h
Outcome: condition met for TGI of at least 10 µM; condition not met for anything lower.

{"compound": "CC(CNC(Cc1ccccc1)c1ccccc1)NC(Cc1ccccc1)c1ccccc1 (configuration not stated)", "category.label": "condition not met"}
{"compound": "CC1C[C@]2(C)C(=O)N(c3ccccc3)C(=N)[C@@H]2N(C)c2ccccc21 (some centres not stated)", "category.label": "condition met"}
{"compound": "COc1ccc2oc3cccc(NCCN(C)C)c3c(=O)c2c1", "category.label": "condition met"}
{"compound": "NC(=O)N1N=C2c3ccccc3SC[C@H]2[C@@H]1c1ccccc1", "category.label": "condition met"}
{"compound": "CCCCOC(=O)C(O)Cc1ccoc1 (configuration not stated)", "category.label": "condition met"}
{"compound": "Brc1ccccc1-c1ncc(-c2ccccc2)o1", "category.label": "condition met"}
{"compound": "COc1ccc(NC(=O)c2cc(OC)c(OC)c(OC)c2)cc1", "category.label": "condition met"}
{"compound": "CNC(=O)c1[nH]cnc1/N=N/N(C)N", "category.label": "condition met"}
{"compound": "c1ccc(CSc2nc(N3CCOCC3)c3cn[nH]c3n2)cc1", "category.label": "condition met"}
{"compound": "CNC(=S)N/N=C/c1cccc(C)n1", "category.label": "condition met"}
{"compound": "CC(C)CC1=[N+]=C(NC#N)N=C(CCC(=O)Nc2ccccc2[N+](=O)[O-])C1", "category.label": "condition met"}
{"compound": "O=c1cc(-c2ccccc2)c2cc3c(=O)ccoc3cc2o1", "category.label": "condition met"}
{"compound": "COc1ccc(-c2cncn2-c2ccc(OC)cc2)cc1", "category.label": "condition not met"}
{"compound": "COc1c(N2CCN(CN3C(=O)C(=Nc4ccc(S(=O)(=O)Nc5ncccn5)cc4)c4ccccc43)C(C)C2)c(F)cc2c(=O)c(C(=O)O)cn(C3CC3)c12 (configuration not stated)", "category.label": "condition met"}
{"compound": "CC[n+]1c(/C=C/c2ccc(N(CCCl)CCCl)cc2)ccc2cc(NC(=O)/C=C/c3ccccc3)ccc21", "category.label": "condition not met"}
{"compound": "C=C(C)C(=O)O[C@H]1[C@H]2[C@H](OC(=O)[C@H]2C)[C@H](O)[C@@H](C)[C@@H]2C=CC(=O)[C@]21C", "category.label": "condition not met"}
{"compound": "COc1ccc2c(c1)OC(N(C(C)=O)C(C)=O)=C(C#N)C2c1ccc(F)cc1 (configuration not stated)", "category.label": "condition not met"}
{"compound": "C(=C\\C(SCc1ccccc1)SCc1ccccc1)/c1ccccc1", "category.label": "condition met"}
{"compound": "C#C[C@]1(O)CC[C@H]2[C@@H]3CCc4cc(OC(=O)c5cccc6cc7ccccc7nc56)ccc4[C@H]3CC[C@@]21C", "category.label": "condition met"}
{"compound": "CCOC(=O)/C=C(\\C)c1ccc(OC)cc1", "category.label": "condition met"}
{"compound": "CC(C)(Br)C1(O)CCCN1C(=O)c1ccccc1 (configuration not stated)", "category.label": "condition met"}
{"compound": "O=C1/C(=C/c2ccc(O)cc2)COc2ccc(-c3ccccc3)cc21", "category.label": "condition not met"}

###

System: SF-295 CNS
Test: NCI tumour cell line growth inhibition, 48 h
Property: TGI; scope: individual compounds

{"compound": "c1ccc(-c2nn(-c3ccccc3)[n+](-c3ccccc3)n2)cc1", "TGI": "> 100 µM"}
{"compound": "COc1ccc2c(c1)OC(N(C(C)=O)C(C)=O)=C(C#N)C2c1ccc(F)cc1 (stereo unspecified)", "TGI": "> 100 µM"}
{"compound": "COc1ccc2nc3cc(Cl)ccc3c(NCCCN(CCCl)CCCl)c2c1", "TGI": "0.505 µM"}
{"compound": "N#CC1(C#N)NC(c2ccsc2)C(C#N)(C#N)NC1c1ccsc1 (stereo unspecified)", "TGI": "> 100 µM"}
{"compound": "CNC(=S)N/N=C/c1cccc(C)n1", "TGI": "> 100 µM"}
{"compound": "CC(=O)OCC1=C(C)C(OC(=O)C(OC(C)=O)[C@@H](NC(=O)c2ccccc2)c2ccccc2)CCC1(C)C (stereo partly specified)", "TGI": "> 100 µM"}
{"compound": "Cc1cccc(NC(=S)Nc2ccccc2Cl)n1", "TGI": "> 100 µM"}
{"compound": "NCc1ccc(C(=O)O)cc1", "TGI": "> 100 µM"}
{"compound": "COc1ccc(-c2cc(-c3cc(OC)c(OC)c(OC)c3)cc(-c3cc4ccccc4oc3=O)n2)cc1", "TGI": "19.4 µM"}
{"compound": "COc1ccc2c3c1OC1c4[nH]c5ccccc5c4CC4(O)C(C2)N(C)CCC314 (stereo unspecified)", "TGI": "> 100 µM"}
{"compound": "COC(=O)/N=[N+](\\[O-])C(c1ccc(OC)cc1)C1CCCCC1 (stereo unspecified)", "TGI": "16.4 µM"}

###

System: HCT-15 colon
Test: NCI tumour cell line growth inhibition, 48 h
measure: TGI (µM)

{"compound": "COC(=O)c1c(C)cccc1/C=C1\\Cc2cc(C)cc(C)c2C1=O", "value.comparator": ">", "readout.number": 100}
{"compound": "COC(=O)c1cc(C#Cc2cc(OC)ccc2OC)ccc1OC", "value.comparator": ">", "readout.number": 100}
{"compound": "CN(C)c1ccc(N=Nc2ccccn2)cc1", "value.comparator": ">", "readout.number": 100}
{"compound": "CC[C@@H](/C=C\\CCC1(C[C@H](O)CCC=C(C)C)OCCO1)O[Si](C(C)C)(C(C)C)C(C)C", "value.comparator": "=", "readout.number": 42.8}
{"compound": "COc1cc(COC(=O)N2CCC2C(=O)O)c([N+](=O)[O-])cc1OC (stereo not given)", "value.comparator": ">", "readout.number": 100}
{"compound": "CC(=O)[O-].CC(=O)[O-].[NH2-].[Pt+2].c1ccc2cnccc2c1", "value.comparator": "=", "readout.number": 45.8}
{"compound": "COc1cc(CNc2ccc(C(C)C)cc2)cc(OC)c1OC", "value.comparator": "=", "readout.number": 31.2}
{"compound": "COCc1cc2c(cc1/C=C/[N+](=O)[O-])OCO2", "value.comparator": "=", "readout.number": 36.8}
{"compound": "c1cc2c(c(-c3c4ccccc4nc4ccccc34)c1)CC1(CC2)OCCO1", "value.comparator": ">", "readout.number": 100}
{"compound": "CCCCCCCCCCCCCCCC(=O)OCC1OC(n2c(O)c(N=NC(N)=S)c3ccc([N+](=O)[O-])cc32)C(OC(C)=O)C1OC(C)=O (stereo not given)", "value.comparator": ">", "readout.number": 100}

###

Tested on: HL-60(TB) leukemia
Assay: NCI tumour cell line growth inhibition, 48 h
measure: TGI

{"molecule": "O=C1CC[C@@H](S(=O)(=O)c2ccccc2)[C@@H](/C=C/c2ccccc2)O1", "tested.system": "HL-60(TB) leukemia", "result": "> 100 µM"}
{"molecule": "CC(C)C1CC(O)O[C@@H]([C@@H](C)[C@H]2CC(=O)[C@@H]3[C@@H]4[C@@H](O)[C@H](O)[C@H]5[C@@H](O)[C@H](O)CC[C@]5(C)[C@H]4CC[C@]23C)C1 (stereo partly drawn)", "tested.system": "HL-60(TB) leukemia", "result": "> 100 µM"}
{"molecule": "COc1cc(C2c3cc4c(cc3[C@@H](Nc3cccc(C(C)=O)c3)C3COC(=O)[C@H]23)OCO4)cc(OC)c1O (stereo partly drawn)", "tested.system": "HL-60(TB) leukemia", "result": "0.328 µM"}
{"molecule": "CC(=O)OC1c2ccccc2CCCCCCC12OCCO2 (stereo not drawn)", "tested.system": "HL-60(TB) leukemia", "result": "> 100 µM"}
{"molecule": "CSc1ccc(/C=C2\\N=C(c3ccccc3)N(c3nc4ccc(Sc5ccccc5)cc4[nH]3)C2=O)cc1", "tested.system": "HL-60(TB) leukemia", "result": "49.4 µM"}
{"molecule": "COC(=O)c1c(C)cccc1/C=C1\\Cc2cc(C)cc(C)c2C1=O", "tested.system": "HL-60(TB) leukemia", "result": "> 100 µM"}
{"molecule": "COC(=O)CNC(=O)[C@@H](OC)[C@@H]1Cc2cc3cc(OC4CC(OC5CC(O)C(O)C(C)O5)C(O)C(C)O4)c(C)c(O)c3c(O)c2C(=O)[C@H]1OC1CC(OC2CC(OC3CC(C)(O)C(O)C(C)O3)C(O)C(C)O2)C(O)C(C)O1 (stereo partly drawn)", "tested.system": "HL-60(TB) leukemia", "result": "49.1 µM"}
{"molecule": "N#C/C(=C\\c1cccc(O)c1)C(N)=O", "tested.system": "HL-60(TB) leukemia", "result": "43.5 µM"}
{"molecule": "COc1cc(COC(=O)N2CCC2C(=O)O)c([N+](=O)[O-])cc1OC (stereo not drawn)", "tested.system": "HL-60(TB) leukemia", "result": "> 100 µM"}
{"molecule": "O=NNc1nc(-c2cccnc2)nc2ccccc12", "tested.system": "HL-60(TB) leukemia", "result": "> 100 µM"}
{"molecule": "C[Si](C)(OCCS(=O)(=O)O)C1S(=O)(=O)OCCOS1(=O)=O", "tested.system": "HL-60(TB) leukemia", "result": "> 100 µM"}
{"molecule": "O=[N+]([O-])c1cn[n+]([O-])c2ccccc12", "tested.system": "HL-60(TB) leukemia", "result": "3.59 µM"}
{"molecule": "CCOC(=O)NN1C(=O)C(=P(c2ccccc2)(c2ccccc2)c2ccccc2)C(C(=O)OCC)=C1C", "tested.system": "HL-60(TB) leukemia", "result": "> 100 µM"}
{"molecule": "COc1cccc(C2c3cc4c(cc3OC(O)(CO)C2C(=O)O)OCO4)c1 (stereo not drawn) (tested in a mixture with another compound)", "tested.system": "HL-60(TB) leukemia", "result": "75.4 µM"}
{"molecule": "CN(CCOc1ccc(C#N)cc1)CCOc1ccc(C#N)cc1", "tested.system": "HL-60(TB) leukemia", "result": "> 100 µM"}
{"molecule": "CN(C)CCOc1ccc2c(c1)C/C(=C/c1ncc([N+](=O)[O-])n1C)C2=O", "tested.system": "HL-60(TB) leukemia", "result": "71.7 µM"}
{"molecule": "CC(=O)c1cc([N+](=O)[O-])ccc1OCC(=O)O", "tested.system": "HL-60(TB) leukemia", "result": "> 100 µM"}
{"molecule": "Cc1ccc(NC(=O)/C(=N\\Nc2ccc([N+](=O)[O-])cc2[N+](=O)[O-])C2C(=O)NC(=O)NC2=O)cc1", "tested.system": "HL-60(TB) leukemia", "result": "> 100 µM"}
